These entries and their values trace back to ChEMBL document CHEMBL4004824.

- Tested on: K562
- ASSAY: Cell cycle arrest in human K562 cells assessed as gated cell levels at G0/G1 phase at antiproliferative IC50 after 72 hrs by propidium iodide staining based flow cytometry (reference value: 44.22 to 55.41%)
- Format: functional
READOUT LABEL: Activity (%)
Report the value in % with no unit label.

See these solved cases before continuing.
SUBSTANCE SMILES | MEASURED
O=C1C[C@H]2O[C@H](CF)[C@H](O)[C@H]2O1 | 39.03
O=C1C[C@H]2O[C@H]([C@@H](Cl)c3ccccc3)[C@H](O)[C@H]2O1 | 36.59

Tested system K562; Activity recorded for `O=C1C[C@H]2O[C@H]([C@H](Cl)c3ccccc3)[C@H](O)[C@H]2O1` was 36.54

Short answer on K562 for `O=C1C[C@H]2O[C@H](CO)[C@H](O)[C@H]2O1` , Activity: 52.55

Activity on K562 for `O=C1C[C@H]2O[C@H]([C@H](F)c3ccccc3)[C@H](O)[C@H]2O1` is 41.6

###

- System: K562
- ASSAY: Cell cycle arrest in human K562 cells assessed as accumulation at S phase at antiproliferative IC50 after 72 hrs by propidium iodide staining based flow cytometry (reference value: 22.92 to 40.15%)
- Assay type: functional
Criterion: Activity strictly less than 30%. Met: True. Not met: False.

SUBSTANCE SMILES | LABEL VALUE
O=C1C[C@H]2O[C@H]([C@H](F)c3ccccc3)[C@H](O)[C@H]2O1 | False
O=C1C[C@H]2O[C@H](CI)[C@H](O)[C@H]2O1 | True
O=C1C[C@H]2O[C@H](CF)[C@H](O)[C@H]2O1 | True
O=C1C[C@H]2O[C@H](CBr)[C@H](O)[C@H]2O1 | True
[N-]=[N+]=N[C@H](c1ccccc1)[C@H]1O[C@@H]2CC(=O)O[C@@H]2[C@H]1O | False

In the record for `O=C1C[C@H]2O[C@H]([C@@H](Cl)c3ccccc3)[C@H](O)[C@H]2O1` , is Activity less than 30%?
False

Does the reported Activity of the following compound sit strictly below 30%? `O=C1C[C@H]2O[C@H]([C@@H](Br)c3ccccc3)[C@H](O)[C@H]2O1`
False

Bench note: check whether `[N-]=[N+]=NC[C@H]1O[C@@H]2CC(=O)O[C@@H]2[C@H]1O` shows Activity below 30%
True

Hello, I'm reviewing records and need to know if Activity of `O=C1C[C@H]2O[C@H](CO)[C@H](O)[C@H]2O1` is below 30%. Could you check?
True

###

- Test system: K562
- ASSAY: Cell cycle arrest in human K562 cells assessed as gated cell levels at subG1 phase at antiproliferative IC50 after 72 hrs by propidium iodide staining based flow cytometry (reference value: 0.44 to 0.55%)
- Format: functional
READOUT LABEL: Activity (%)
Give just the numeric value; % need not be written.

# example entries with known answers
SUBSTANCE SMILES | Activity / %
O=C1C[C@H]2O[C@H]([C@H](F)c3ccccc3)[C@H](O)[C@H]2O1 | 1.91
[N-]=[N+]=NC[C@H]1O[C@@H]2CC(=O)O[C@@H]2[C@H]1O | 13.01
O=C1C[C@H]2O[C@H]([C@@H](Cl)c3ccccc3)[C@H](O)[C@H]2O1 | 5.46

Value of measured Activity for the entry `O=C1C[C@H]2O[C@H]([C@H](Br)c3ccccc3)[C@H](O)[C@H]2O1` : 1.17

Noted for `O=C1C[C@H]2O[C@H]([C@@H](I)c3ccccc3)[C@H](O)[C@H]2O1` : its Activity reads 2.26

// sample `O=C1C[C@H]2O[C@H]([C@H](O)c3ccccc3)[C@H](O)[C@H]2O1` , its Activity was 0.97

Reported Activity for `[N-]=[N+]=N[C@H](c1ccccc1)[C@H]1O[C@@H]2CC(=O)O[C@@H]2[C@H]1O` was 5.56

Notebook: `O=C1C[C@H]2O[C@H](CBr)[C@H](O)[C@H]2O1` , Activity read as 10.99
